Target: Kras and SOS1 (biotin-tagged human Kras loaded with GDP, His-tagged human SOS1) (Homo sapiens, UniProt P01116, G12D)
Construct: made in house; host or cells: E. coli (stated for Kras only)
Sequence (P01116 1-188 isoform P01116-2 G12D): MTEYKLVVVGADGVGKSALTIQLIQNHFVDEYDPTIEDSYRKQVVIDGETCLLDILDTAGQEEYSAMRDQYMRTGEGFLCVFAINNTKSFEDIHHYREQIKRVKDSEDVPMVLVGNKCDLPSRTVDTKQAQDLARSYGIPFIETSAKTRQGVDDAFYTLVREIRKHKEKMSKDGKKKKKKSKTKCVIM
Assay: Protein-protein interaction inhibition between Kras and SOS1 (KrasGl2D-SOS PPI) using AlphaScreen
Type: binding
Conditions: AlphaScreen; biotin-tagged human Kras loaded with GDP, His-tagged human SOS1; read-out: KRAS G12D-SOS PPI IC50
Starred links: 1 amine or outer side, 2 acyl side, 3 side chain; linkers in the order of their positions; H or OH if unused. Positions of bridges follow the written chain, without caps; N, C: chain ends. Non-standard residues stand in square brackets, D forms with d. Residues, ends and D or L forms follow the SMILES beside them. hPhe(3-Cl-4-CF3) = N[C@@H](CCc1ccc(C(F)(F)F)c(Cl)c1)C(=O)O; NMeAla(4-thiazolyl) = CN[C@@H](Cc1cscn1)C(=O)O; NMedβ3hAla = C[C@H](CC(=O)[*:2])N(C)[*:1]; NMeGly(cPent) = CN[C@H](C(=O)O)C1CCCC1; NMeCha = CN[C@@H](CC1CCCCC1)C(=O)O; NMeD = CN[C@@H](CC(=O)O)C(=O)O; NMeL = CN[C@@H](CC(C)C)C(=O)O; NMeA = CN[C@@H](C)C(=O)O; NMeAib = CNC(C)(C)C(=O)O; Aze = O=C(O)[C@@H]1CCN1; Sar = CNCC(=O)O
measure: pIC50
Note on pIC50: it is the negative log10 of concentration, concentration in mol/L.

[[record]]
molecule = "CC[C@H](C)[C@@H]1NC(=O)[C@H](C)N(C)C(=O)C[C@@H](C)N(C)C(=O)[C@H](C2CCCC2)N(C)C(=O)C(C)(C)N(C)C(=O)[C@@H]2CCCN2C(=O)[C@H](CCc2ccc(C(F)(F)F)c(Cl)c2)NC(=O)CN(C)C(=O)[C@H](CC2CCCCC2)N(C)C(=O)[C@@H]2CCN2C(=O)[C@H](C)N(C)C1=O [Compound 2156] (cyclo([Aze][NMeCha][Sar][hPhe(3-Cl-4-CF3)]P[NMeAib][NMeGly(cPent)][NMedβ3hAla][NMeA]I[NMeA]))"
measvalue = 8.35


Then this molecule:
Inquiry: // pIC50 lookup, key: CC[C@H](C)[C@@H]1NC(=O)[C@H](CC(C)C)N(C)C(=O)C[C@@H](C(=O)N(C)C)N(C)C(=O)[C@H](C2CCCC2)N(C)C(=O)[C@H](C)NC(=O)[C@H](Cc2cscn2)N(C)C(=O)[C@H](CCc2ccc(C(F)(F)F)c(Cl)c2)NC(=O)CN(C)C(=O)[C@H](CC2CCCCC2)N(C)C(=O)[C@@H]2CCN2C(=O)[C@H](C)N(C)C1=O [Compound 805] ([NMeL]I[NMeA][Aze][NMeCha][Sar][hPhe(3-Cl-4-CF3)][NMeAla(4-thiazolyl)]A[NMeGly(cPent)][NMeD]-NMe2; lactam N-11)
Reply text: 7.42

====

Target: Kras and SOS1 (biotin-tagged human Kras loaded with GDP, His-tagged human SOS1) (Homo sapiens, UniProt P01116, G12D)
Construct: made in house; host or cells: E. coli (stated for Kras only)
Assay: Protein-protein interaction inhibition between Kras and SOS1 (KrasGl2D-SOS PPI) using AlphaScreen
Format: binding
Settings: AlphaScreen; biotin-tagged human Kras loaded with GDP, His-tagged human SOS1; read-out: KRAS G12D-SOS PPI IC50
Positions of bridges follow the written chain, without caps; N, C: chain ends. Non-standard residues stand in square brackets, D forms with d. Residues, ends and D or L forms follow the SMILES beside them. *: point of attachment. hPhe(3-Cl-4-CF3) = N[C@@H](CCc1ccc(C(F)(F)F)c(Cl)c1)C(=O)O; hPhe(3-F,4-CF3) = N[C@@H](CCc1ccc(C(F)(F)F)c(F)c1)C(=O)O; NMePhe(4-CF3) = CN[C@@H](Cc1ccc(C(F)(F)F)cc1)C(=O)O; 3Oxa8azabicyclo(3.2.1)octane = C1CC2COCC1N2*; NMeCha = CN[C@@H](CC1CCCCC1)C(=O)O; NMeChg = CN[C@H](C(=O)O)C1CCCCC1; NMeD = CN[C@@H](CC(=O)O)C(=O)O; NMeL = CN[C@@H](CC(C)C)C(=O)O; NMeV = CN[C@H](C(=O)O)C(C)C; d(β3hA) = C[C@@H](N)CC(=O)O; NMeS = CN[C@@H](CO)C(=O)O; Pip = O=C(O)[C@@H]1CCCCN1; Piperidide = C1CCN(*)CC1; Ac5c = NC1(C(=O)O)CCCC1; Sar = CNCC(=O)O; Propyl = CCC*
The following compounds are listed with their measured pIC50 values.
Note on pIC50: it is the negative log10 of concentration, concentration in mol/L.

Here's what some known entries look like.
[[record]]
compound = "CCCOC[C@H]1C(=O)N(C)[C@H](C(=O)N2CCCCC2)CC(=O)N(C)[C@@H](CC(C)C)C(=O)N[C@@H]([C@@H](C)CC)C(=O)N(C)CC(=O)N(C)CC(=O)N(C)[C@@H](CC2CCCCC2)C(=O)N(C)CC(=O)N[C@@H](CCc2ccc(C(F)(F)F)c(Cl)c2)C(=O)N2CCC[C@H]2C(=O)NC2(CCCC2)C(=O)N1C [Compound 1771] ([NMeL]I[Sar][Sar][NMeCha][Sar][hPhe(3-Cl-4-CF3)]P[Ac5c][NMeS](Propyl)[NMeD]-Piperidide; lactam N-11)"
measure = "pIC50"
measvalue = 7.11

[[record]]
compound = "CC[C@H](C)[C@@H]1NC(=O)[C@@H]2CCCCN2C(=O)C[C@@H](C(=O)N2CCCCC2)N(C)C(=O)[C@H](C(C)C)N(C)C(=O)C2(CCCC2)NC(=O)[C@@H]2CCCN2C(=O)[C@H](CCc2ccc(C(F)(F)F)c(F)c2)NC(=O)CN(C)C(=O)[C@H](CC2CCCCC2)N(C)C(=O)CN(C)C(=O)CN(C)C1=O [Compound 670] ([Pip]I[Sar][Sar][NMeCha][Sar][hPhe(3-F,4-CF3)]P[Ac5c][NMeV][NMeD]-Piperidide; lactam N-11)"
measure = "pIC50"
measvalue = 8.29


Inquiry: // pIC50 lookup, key: CC[C@H](C)[C@@H]1NC(=O)[C@H](CC(C)C)N(C)C(=O)C[C@@H](C(=O)N2C3CCC2COC3)N(C)C(=O)[C@H](C2CCCCC2)N(C)C(=O)C2(CCCC2)NC(=O)[C@@H]2CCCN2C(=O)[C@H](CCc2ccc(C(F)(F)F)c(Cl)c2)NC(=O)CN(C)C(=O)[C@H](Cc2ccc(C(F)(F)F)cc2)N(C)C(=O)CN(C)C(=O)CN(C)C1=O [Compound 1932] ([NMeL]I[Sar][Sar][NMePhe(4-CF3)][Sar][hPhe(3-Cl-4-CF3)]P[Ac5c][NMeChg][NMeD]-{3Oxa8azabicyclo(3.2.1)octane}; lactam N-11)
Reply text: 8.96

Inquiry: Similarly, CC[C@H](C)[C@@H]1NC(=O)[C@H](CC(C)C)N(C)C(=O)C[C@@H](C)NC(=O)[C@H](CC(C)C)N(C)C(=O)C2(CCCC2)NC(=O)[C@@H]2CCCN2C(=O)[C@H](CCc2ccc(C(F)(F)F)c(Cl)c2)NC(=O)CN(C)C(=O)[C@H](CC2CCCCC2)N(C)C(=O)CN(C)C(=O)CN(C)C1=O [Compound 1503] (cyclo([Ac5c][NMeL][d(β3hA)][NMeL]I[Sar][Sar][NMeCha][Sar][hPhe(3-Cl-4-CF3)]P)) ?
Reply text: 7.80

Reference for the values: patent US12371454B2
